// provenance: patent US10280146B2

# experimentalTarget: Lp-PLA2 (human recombinant enzyme as the source of enzyme) (Homo sapiens)
# Sequence (Q13093 22-441): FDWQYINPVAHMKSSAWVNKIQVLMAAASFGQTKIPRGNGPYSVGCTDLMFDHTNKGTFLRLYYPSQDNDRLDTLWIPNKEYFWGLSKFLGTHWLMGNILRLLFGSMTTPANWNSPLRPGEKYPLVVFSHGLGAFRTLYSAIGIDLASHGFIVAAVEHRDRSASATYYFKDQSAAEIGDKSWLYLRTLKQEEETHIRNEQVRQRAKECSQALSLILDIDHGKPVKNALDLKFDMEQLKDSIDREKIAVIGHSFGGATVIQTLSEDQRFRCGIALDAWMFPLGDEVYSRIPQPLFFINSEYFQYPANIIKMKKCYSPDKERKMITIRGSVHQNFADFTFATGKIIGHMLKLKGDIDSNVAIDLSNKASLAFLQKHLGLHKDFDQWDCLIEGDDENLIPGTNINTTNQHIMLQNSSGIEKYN
# testName: In vitro inhibitory activity on Lp-PLA2, human recombinant enzyme (2-thio-PAF/DTNB)
# Assay type: biochemical
# setupConditions: 10 nM compound; read-out: inhibitory ratio, % on Lp-PLA2 (human recombinant enzyme as the source of enzyme)
valueKind: inhibition at 0.01 µM (%)

In [3]: df
Out[3]:
                                  smilesstr              valuekind   val
0  Cn1c(N2CCC(F)(F)C2)cc(OCc2cc(F)c(Oc3ccc(Cl)c(C(F)(F)F)c3)c(F)c2)nc1=O  inhibition at 0.01 µM  55.3
1  Cn1cc(-c2cc(OCc3cc(F)c(Oc4ccc(Cl)c(C(F)(F)F)c4)c(F)c3)nc(=O)n2C)cn1  inhibition at 0.01 µM  82.8
2  Cn1c(-c2ccccc2)cc(OCc2cc(F)c(Oc3ccc(Cl)c(C(F)(F)F)c3)c(F)c2)nc1=O  inhibition at 0.01 µM  53.6
3  COc1ccc(-c2cc(OCc3cc(F)c(Oc4ccc(Cl)c(C(F)(F)F)c4)c(F)c3)nc(=O)n2C)cc1  inhibition at 0.01 µM  46.9
4  CCn1c(N2CCOCC2)cc(OCc2cc(F)c(Oc3ccc(Cl)c(C(F)(F)F)c3)c(F)c2)nc1=O  inhibition at 0.01 µM  53.9

###

# testName: In vitro assay of S9 metabolic stability, human S9
# Format: in vitro ADME
# setupConditions: human, S9 fraction, pH 7.4
valueKind: half-life at 0.1 μM (h)

                                   compound  inequalitysign   val
0  COc1cc(OCc2cc(F)c(Oc3ccc(Cl)c(C(F)(F)F)c3)c(F)c2)nc(=O)n1C [Example 65]               =  7.08
1  Cn1cc(-c2cc(OCc3cc(F)c(Oc4ccc(Cl)c(C(F)(F)F)c4)c(F)c3)nc(=O)n2C)cn1 [Example 21]               >     1
